FYI, the data here is from the supplement of paper PMC5998384.

- Test system: HeLa Kyoto
- Test description: solubility change mitosis vs G1/S (difference of NP-40 vs SDS log2 ratios) (log2 ratio difference); higher = more soluble in mitosis
Below, each entry is listed with its recorded solubility change mitosis (log2).
Could you keep your reply to the number by itself?

# Seq string, Experimental readout, Value measured
rows = [
    ("MDGLRQRVEHFLEQRNLVTEVLGALEAKTGVEKRYLAAGAVTLLSLYLLFGYGASLLCNLIGFVYPAYASIKAIESPSKDDDTVWLTYWVVYALFGLAEFFSDLLLSWFPFYYVGKCAFLLFCMAPRPWNGALMLYQRVVRPLFLRHHGAVDRIMNDLSGRALDAAAGITRNVLQVLARSRAGITPVAVAGPSTPLEADLKPSQTPQPKDK [REEP6]", "solubility change mitosis (log2)", -0.143),
]

**Query** Item under review: MDPVVLSYMDSLLRQSDVSLLDPPSWLNDHIIGFAFEYFANSQFHDCSDHVSFISPEVTQFIKCTSNPAEIAMFLEPLDLPNKRVVFLAINDNSNQAAGGTHWSLLVYLQDKNSFFHYDSHSRSNSVHAKQVAEKLEAFLGRKGDKLAFVEEKAPAQQNSYDCGMYVICNTEALCQNFFRQQTESLLQLLTPAYITKKRGEWKDLITTLAKK [SENP8] . Reported solubility change mitosis (log2)?
**Result** -0.151

**Query** Item under review: MSSAPRSPTPRPRRMKKDESFLGKLGGTLARKRRAREVSDLQEEGKNAINSPMSPALVDVHPEDTQLEENEERTMIDPTSKEDPKFKELVKVLLDWINDVLVEERIIVKQLEEDLYDGQVLQKLLEKLAGCKLNVAEVTQSEIGQKQKLQTVLEAVHDLLRPRGWALRWSVDSIHGKNLVAILHLLVSLAMHFRAPIRLPEHVTVQVVVVRKREGLLHSSHISEELTTTTEMMMGRFERDAFDTLFDHAPDKLSVVKKSLITFVNKHLNKLNLEVTELETQFADGVYLVLLMGLLEDYFVPLHHFYLTPESFDQKVHNVSFAFELMLDGGLKKPKARPEDVVNLDLKSTLRVLYNLFTKYKNVE [PARVB] . Reported solubility change mitosis (log2)?
**Result** -0.137

----------
- Test system: HeLa Kyoto
- Test description: melting temperature (median over replicates), in situ; higher = more thermally stable
- Condition summary: cell cycle stage: G1/S
Experimental readout: melting temperature (°C)
The response must be a number in °C with no trailing unit.

# Seq string, Value units, melting temperature
data = [
    ("MFIKGRAPRAPPRERRRATRGGLRQVVAPPRALGSTSRPHFRRASVCRRRCRKSGGLLAASRKMAAAAVNGAAGFSSSGPAATSGAVLQAATGMYEQLKGEWNRKSPNLSKCGEELGRLKLVLLELNFLPTTGTKLTKQQLILARDILEIGAQWSILRKDIPSFERYMAQLKCYYFDYKEQLPESAYMHQLLGLNLLFLLSQNRVAEFHTELERLPAKDIQTNVYIKHPVSLEQYLMEGSYNKVFLAKGNIPAESYTFFIDILLDTIRDEIAGCIEKAYEKILFTEATRILFFNTPKKMTDYAKKRGWVLGPNNYYSFASQQQKPEDTTIPSTELAKQVIEYARQLEMIV [PSMD8]", "°C", 53.4),
    ("MDGGDDGNLIIKKRFVSEAELDERRKRRQEEWEKVRKPEDPEECPEEVYDPRSLYERLQEQKDRKQQEYEEQFKFKNMVRGLDEDETNFLDEVSRQQELIEKQRREEELKELKEYRNNLKKVGISQENKKEVEKKLTVKPIETKNKFSQAKLLAGAVKHKSSESGNSVKRLKPDPEPDDKNQEPSSCKSLGNTSLSGPSIHCPSAAVCIGILPGLGAYSGSSDSESSSDSEGTINATGKIVSSIFRTNTFLEAP [FAM192A]", "°C", 57.6),
    ("MALGLKCFRMVHPTFRNYLAASIRPVSEVTLKTVHERQHGHRQYMAYSAVPVRHFATKKAKAKGKGQSQTRVNINAALVEDIINLEEVNEEMKSVIEALKDNFNKTLNIRTSPGSLDKIAVVTADGKLALNQISQISMKSPQLILVNMASFPECTAAAIKAIRESGMNLNPEVEGTLIRVPIPQVTREHREMLVKLAKQNTNKAKDSLRKVRTNSMNKLKKSKDTVSEDTIRLIEKQISQMADDTVAELDRHLAVKTKELLG [MRRF]", "°C", 50.1),
    ("MREYKLVVLGSGGVGKSALTVQFVQGIFVEKYDPTIEDSYRKQVEVDCQQCMLEILDTAGTEQFTAMRDLYMKNGQGFALVYSITAQSTFNDLQDLREQILRVKDTEDVPMILVGNKCDLEDERVVGKEQGQNLARQWCNCAFLESSAKSKINVNEIFYDLVRQINRKTPVEKKKPKKKSCLLL [RAP1A]", "°C", 58.5),
    ("MKLYSLSVLYKGEAKVVLLKAAYDVSSFSFFQRSSVQEFMTFTSQLIVERSSKGTRASVKEQDYLCHVYVRNDSLAGVVIADNEYPSRVAFTLLEKVLDEFSKQVDRIDWPVGSPATIHYPALDGHLSRYQNPREADPMTKVQAELDETKIILHNTMESLLERGEKLDDLVSKSEVLGTQSKAFYKTARKQNSCCAIM [YKT6]", "°C", 54.5),
]

**Query** Which melting temperature is reported with HeLa Kyoto for this entry: MSVGFIGAGQLAYALARGFTAAGILSAHKIIASSPEMNLPTVSALRKMGVNLTRSNKETVKHSDVLFLAVKPHIIPFILDEIGADVQARHIVVSCAAGVTISSVEKKLMAFQPAPKVIRCMTNTPVVVQEGATVYATGTHALVEDGQLLEQLMSSVGFCTEVEEDLIDAVTGLSGSGPAYAFMALDALADGGVKMGLPRRLAIQLGAQALLGAAKMLLDSEQHPCQLKDNVCSPGGATIHALHFLESGGFRSLLINAVEASCIRTRELQSMADQEKISPAALKKTLLDRVKLESPTVSTLTPSSPGKLLTRSLALGGKKD [PYCR2] ?
**Result** 54.9

----------
- Test system: HeLa Kyoto
- Test description: melting temperature (median over replicates), in situ; higher = more thermally stable
- Condition summary: cell cycle stage: mitosis
Below, each entry is listed with its recorded melting temperature.
The response must be a number in °C with no trailing unit.

// solved cases for melting temperature follow
# Seq string, Value units, Value measured
data = [
    ("MAAGDGDVKLGTLGSGSESSNDGGSESPGDAGAAAEGGGWAAAALALLTGGGEMLLNVALVALVLLGAYRLWVRWGRRGLGAGAGAGEESPATSLPRMKKRDFSLEQLRQYDGSRNPRILLAVNGKVFDVTKGSKFYGPAGPYGIFAGRDASRGLATFCLDKDALRDEYDDLSDLNAVQMESVREWEMQFKEKYDYVGRLLKPGEEPSEYTDEEDTKDHNKQD [PGRMC2]", "°C", 53.9),
    ("MVEADRPGKLFIGGLNTETNEKALETVFGKYGRIVEVLLIKDRETNKSRGFAFVTFESPADAKDAARDMNGKSLDGKAIKVEQATKPSFERGRHGPPPPPRSRGPPRGFGAGRGGSGGTRGPPSRGGHMDDGGYSMNFNMSSSRGPLPVKRGPPPRSGGPSPKRSAPSGLVRSSSGMGGRAPLSRGRDSYGGPPRREPLPSRRDVYLSPRDDGYSTKDSYSSRDYPSSRDTRDYAPPPRDYTYRDYGHSSSRDDYPSRGYGDRDGYGRDRDYSDHPSGGSYRDSYESYGNSRSAPLTRGPPPSYGGSSRYDDYSSSRDGYGGSRDSYSSSRSDLYSSCDRVGRQERGLPPSVERGYPSSRDSYSSSSRGAPRGAGPGGSRSDRGGGRSRY [RBMXL1]", "°C", 51),
]

Now turn to the next sequence.
**Query** Item under review: MAAPAQQTTQPGGGKRKGKAQYVLAKRARRCDAGGPRQLEPGLQGILITCNMNERKCVEEAYSLLNEYGDDMYGPEKFTDKDQQPSGSEGEDDDAEAALKKEVGDIKASTEMRLRRFQSVESGANNVVFIRTLGIEPEKLVHHILQDMYKTKKKKTRVILRMLPISGTCKAFLEDMKKYAETFLEPWFKAPNKGTFQIVYKSRNNSHVNREEVIRELAGIVCTLNSENKVDLTNPQYTVVVEIIKAVCCLSVVKDYMLFRKYNLQEVVKSPKDPSQLNSKQGNGKEAKLESADKSDQNNTAEGKNNQQVPENTEELGQTKPTSNPQVVNEGGAKPELASQATEGSKSNENDFS [THUMPD1] . Reported melting temperature?
**Result** 54.3
